# TARGET DESC: Angiotensin-converting enzyme (Oryctolagus cuniculus, UniProt P12822)
# Sequence (P12822 whole entry): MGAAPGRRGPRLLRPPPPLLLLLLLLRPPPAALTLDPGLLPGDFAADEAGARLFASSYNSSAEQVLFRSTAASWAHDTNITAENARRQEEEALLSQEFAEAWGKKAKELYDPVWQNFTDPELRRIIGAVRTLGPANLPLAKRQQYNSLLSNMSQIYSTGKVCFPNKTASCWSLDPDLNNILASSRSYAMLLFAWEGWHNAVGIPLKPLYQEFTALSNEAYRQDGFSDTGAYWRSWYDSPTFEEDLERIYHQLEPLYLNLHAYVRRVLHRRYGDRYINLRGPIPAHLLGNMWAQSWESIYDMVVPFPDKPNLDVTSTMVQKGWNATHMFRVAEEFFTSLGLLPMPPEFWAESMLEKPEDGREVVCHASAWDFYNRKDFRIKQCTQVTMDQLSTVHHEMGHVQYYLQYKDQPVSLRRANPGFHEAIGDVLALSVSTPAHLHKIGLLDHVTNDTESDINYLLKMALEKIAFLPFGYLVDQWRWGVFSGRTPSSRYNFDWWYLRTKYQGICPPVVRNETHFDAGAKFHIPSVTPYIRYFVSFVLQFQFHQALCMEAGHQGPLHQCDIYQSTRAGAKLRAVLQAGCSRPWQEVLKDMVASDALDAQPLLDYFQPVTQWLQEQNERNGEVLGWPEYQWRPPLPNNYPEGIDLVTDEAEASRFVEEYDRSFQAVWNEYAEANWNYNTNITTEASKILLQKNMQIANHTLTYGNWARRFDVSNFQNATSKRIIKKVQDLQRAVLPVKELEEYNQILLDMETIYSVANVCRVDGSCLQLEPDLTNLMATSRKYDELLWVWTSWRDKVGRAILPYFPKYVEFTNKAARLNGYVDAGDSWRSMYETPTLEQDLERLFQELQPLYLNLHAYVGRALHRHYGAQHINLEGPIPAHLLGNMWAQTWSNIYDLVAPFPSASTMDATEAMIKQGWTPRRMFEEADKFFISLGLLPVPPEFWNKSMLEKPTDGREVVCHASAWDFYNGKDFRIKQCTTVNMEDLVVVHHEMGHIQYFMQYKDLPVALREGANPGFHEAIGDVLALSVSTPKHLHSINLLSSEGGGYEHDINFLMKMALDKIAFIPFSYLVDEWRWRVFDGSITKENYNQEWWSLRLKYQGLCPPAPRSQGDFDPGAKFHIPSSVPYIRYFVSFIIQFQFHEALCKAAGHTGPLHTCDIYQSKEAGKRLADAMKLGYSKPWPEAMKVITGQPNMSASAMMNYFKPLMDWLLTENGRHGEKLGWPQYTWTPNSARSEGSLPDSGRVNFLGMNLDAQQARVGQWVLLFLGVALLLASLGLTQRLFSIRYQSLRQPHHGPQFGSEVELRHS
# MEASUREMENT DESCRIPTION: Inhibitory activity against rabbit lung Angiotensin I converting enzyme with 5 mM hippuryl-histidyl-leucine as substrate
MEASURED ENDPOINT: log10(IC50) (log10 of the value in nM)

COMPOUND: O=C(O)CN1C[C@@H](c2cccs2)SC[C@H](N[C@@H](CCc2ccccc2)C(=O)O)C1=O [TEMOCAPRILAT]
log10(IC50): 0.56
//
COMPOUND: O=C(O)CN1C(=O)[C@@H](N[C@@H](CCc2ccccc2)C(=O)O)CSCC1c1cccs1 (stereo not given in full)
log10(IC50): 0.45
//
COMPOUND: O=C(O)CN1C[C@@H](c2ccccc2)SC[C@H](N[C@@H](CCc2ccccc2)C(=O)O)C1=O
log10(IC50): 0.57
//
COMPOUND: O=C(O)CN1C(=O)[C@@H](N[C@@H](CCc2ccccc2)C(=O)O)CSC[C@@H]1c1ccccc1
log10(IC50): 1.89
//
COMPOUND: O=C(O)CN1C[C@H](c2ccccc2)SC[C@H](N[C@@H](CCc2ccccc2)C(=O)O)C1=O
log10(IC50): 1.55
